Property: kcat; scope: individual compounds
# Protocol notes: Activity of Beta-lactamase TEM-149 T182M mutant expressed in Escherichia coli HB101
Answer in s⁻¹, number only, no unit symbol.

# Compound, Measurement
measured = [
    ("C[C@H]1[C@H](NC(=O)/C(=N\\OC(C)(C)C(=O)O)c2csc(N)n2)C(=O)N1S(=O)(=O)O [AZTREONAM]", 3.6),
]

Looking up `CC1(C)S[C@@H]2[C@H](NC(=O)Cc3ccccc3)C(=O)N2[C@H]1C(=O)O` , I found its kcat recorded as 10.5

Looking up `CO/N=C(\C(=O)N[C@@H]1C(=O)N2C(C(=O)[O-])=C(C[N+]3(C)CCCC3)CS[C@H]12)c1csc(N)n1` , I found its kcat recorded as 0.43

Looking up Cc1nnc(SCC2=C(C(=O)O)N3C(=O)[C@@H](NC(=O)Cn4cnnn4)[C@H]3SC2)s1 [CEFAZOLIN] , I found its kcat recorded as 0.56

---

# Protocol notes: Activity of Beta-lactamase TEM-10
Property: log10 Km; scope: individual compounds
Scale: decimal log of Km, Km in µM.

As a guide, the following entries are already answered.
# Compound, log10 Km
measured = [
    ("C[C@H]1[C@H](NC(=O)/C(=N\\OC(C)(C)C(=O)O)c2csc(N)n2)C(=O)N1S(=O)(=O)O [AZTREONAM]", 1.45),
    ("Cc1nnc(SCC2=C(C(=O)O)N3C(=O)[C@@H](NC(=O)Cn4cnnn4)[C@H]3SC2)s1 [CEFAZOLIN]", 2.62),
    ("CC(C)(O/N=C(\\C(=O)N[C@@H]1C(=O)N2C(C(=O)[O-])=C(C[n+]3ccccc3)CS[C@H]12)c1csc(N)n1)C(=O)O [CEFTAZIDIME]", 2.78),
    ("CC1(C)S[C@@H]2[C@H](NC(=O)[C@H](N)c3ccccc3)C(=O)N2[C@H]1C(=O)O", 0.60),
    ("CC1(C)S[C@@H]2[C@H](NC(=O)Cc3ccccc3)C(=O)N2[C@H]1C(=O)O", 0.30),
]

Looking up CO/N=C(\C(=O)N[C@@H]1C(=O)N2C(C(=O)O)=C(COC(C)=O)CS[C@H]12)c1csc(N)n1 [CEFOTAXIME] , I found its log10 Km recorded as 1.48

---

# Protocol notes: Ratio of Kcat to Km for Beta-lactamase TEM-149 expressed in Escherichia coli HB101
Quantity name: kcat/Km (M⁻¹ s⁻¹)
Answer in M⁻¹ s⁻¹, number only, no unit symbol.

As a guide, the following entries are already answered.
# Record smiles, Measure unit, kcat/Km
measured = [
    ("CO/N=C(\\C(=O)N[C@@H]1C(=O)N2C(C(=O)O)=C(COC(C)=O)CS[C@H]12)c1csc(N)n1", "M⁻¹ s⁻¹", 1600),
    ("C[C@H]1[C@H](NC(=O)/C(=N\\OC(C)(C)C(=O)O)c2csc(N)n2)C(=O)N1S(=O)(=O)O", "M⁻¹ s⁻¹", 92000),
    ("Cc1nnc(SCC2=C(C(=O)O)N3C(=O)[C@@H](NC(=O)Cn4cnnn4)[C@H]3SC2)s1", "M⁻¹ s⁻¹", 32000),
    ("CC1(C)S[C@@H]2[C@H](NC(=O)Cc3ccccc3)C(=O)N2[C@H]1C(=O)O", "M⁻¹ s⁻¹", "5.8e+06"),
    ("CC1(C)S[C@@H]2[C@H](NC(=O)[C@H](N)c3ccccc3)C(=O)N2[C@H]1C(=O)O", "M⁻¹ s⁻¹", "1.08e+06"),
]

Looking up `CO/N=C(\C(=O)N[C@@H]1C(=O)N2C(C(=O)[O-])=C(C[N+]3(C)CCCC3)CS[C@H]12)c1csc(N)n1` , I found its kcat/Km recorded as 150000

Looking up `CC(C)(O/N=C(\C(=O)N[C@@H]1C(=O)N2C(C(=O)[O-])=C(C[n+]3ccccc3)CS[C@H]12)c1csc(N)n1)C(=O)O` , I found its kcat/Km recorded as 440000

Looking up `CCN1CCN(C(=O)N[C@@H](C(=O)N[C@@H]2C(=O)N3[C@@H]2SC(C)(C)[C@@H]3C(=O)O)c2ccccc2)C(=O)C1=O` , I found its kcat/Km recorded as 1.92e+06
